Would you kindly list PBM binding z-score for each of these sequences?
Tested on: THRa:RXRa (NR concentration 90 nM, RXRa partner concentration 90 nM)
Assay: PBM binding z-score (relative to random genomic background probes); higher = stronger binding; sequences stand for … in GC…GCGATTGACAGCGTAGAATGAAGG
Output spec: single numeric token, no unit.

Recorded PBM binding z-score of TGAATGAGGTTTTAAGATCAGGGAACGTTGCAAA , please.
0.308

Try the sequence CCTCGGAGGACGACAGGAGGTCAGAGCTGCCAGA
2.33

Try the sequence GCATATAGGTAATGCAAGGTGAAAGTCCGATTGT
4.1

Try the sequence CTAGAAAGGTCGTGCTCAGGTGAGTATACCAAAC
4.02

Try the sequence CCTAGTTGGTCAGGAGGTCACACATCGGATATGA
3.39

Try the sequence TCGGCTAGGTCAGTTGGTCAGCTAACGAGCTGCC
1.14

* * *

System: PXR homodimer (NR concentration 270 nM)
Assay: PBM binding z-score (relative to random genomic background probes); higher = stronger binding; sequences stand for … in GC…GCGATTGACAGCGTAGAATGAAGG
Respond with Fulfilled for PBM binding z-score values of -0.5 and above, Not fulfilled for values below.

Check the entry AGAACGAGGGCAAGCTGAGTTGATAGCAGAGTAG : does PBM binding z-score equal or exceed -0.5?
Fulfilled

Try the sequence TAGCCTAGATCATTGGGCCAGTATAGTACGCATC
Not fulfilled

Try the sequence TAGCATAGGTCATGGGCCAGTATACCACGCGAAC
Fulfilled

Try the sequence GCGACTGGGGCAAAGCAGGTTATCATAAGGTTGG
Not fulfilled

Try the sequence AGAACGAGGGCAACGAGTTGATAGCACGGGTGGC
Fulfilled

Try the sequence ATCGAAAGGTGGAAGGTGAGTATACCCACCCGAA
Fulfilled

Try the sequence GCGGACAGGTGAAACGCAGGTAACTCAGGGTGGC
Not fulfilled

Try the sequence CATACAGGGTCAGCTAGGCCAGAGAAGGGACGGC
Fulfilled

Try the sequence CCTACTGGGCCAGGAAAGGTCATTGATTCAGTGA
Fulfilled

Try the sequence TCATATAGGTAATACAGGTGAAGGTCGGCATCTA
Fulfilled

Try the sequence CCTCGGAGGACAACAGGAGGTAAGAGCTGCCAGA
Not fulfilled

* * *

Test system: PPARg DBDmut:RXRa IVT, anti-PPARg (DBD mutation: PPARg1 K132A/R137A, NR concentration 270 nM, RXRa partner concentration 90 nM)
Assay: PBM binding z-score (relative to random genomic background probes); higher = stronger binding; sequences stand for … in GC…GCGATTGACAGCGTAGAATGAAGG
Respond with Yes for PBM binding z-score values of 0.6 and above, No for values below.

Check the entry CATACTAGGTCAAGGTCAAAGTCGGTTTGTGCCA : does PBM binding z-score equal or exceed 0.6?
Yes

Try the sequence GCTAGTTGGTCAGTAAAAGGTCACACACCGGTCG
No

Try the sequence GCTATTAGTTGAAAGGGCAACCGTATGATTCTCG
No

Try the sequence CGTCTAAGGTCAGAGAGGTCAGTGAATGCCGAGT
Yes

Try the sequence CCAGACAGATGAGAAGGTAACTCAGCCTCGATTA
No

Try the sequence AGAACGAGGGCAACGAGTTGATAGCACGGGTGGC
No

Try the sequence AGAATGAGGTTATATGTAGATCAGGGAAGAAAGT
Yes

Try the sequence CAGACTAGGTCAAGAGGTCAAAGTCCGCTTCCCG
Yes

Try the sequence CGAAGTAGGTCAAGGACAGTGAATCTCCGCACGC
Yes

Try the sequence AGTACAGGGTCATCGTAGGCCAGAGTACGCACAG
Yes

Try the sequence CGAACTAGGTCTGAACAGGACAGTGAAGGATGAT
No

Try the sequence ATCTCTAGGTAAAGTACAGTGAAAGATCGATAGA
Yes

Try the sequence TCTTGTAGATCAGCAGGTTAAGGAAGCTGGCCAA
No

Try the sequence TATTGTAGATCAACAGGAGGTTAAGAAAGATCGA
Yes

Try the sequence CATATTAGTTGACCATAAGGGCAACCGAAGCTCG
Yes

Try the sequence TCGAGTTGGTTAGTCGGGGCATTCAGCCAACATA
No

Try the sequence CTTCCAAGGTCAAGGTCAGTGAAAGAGACTCGAA
No

Try the sequence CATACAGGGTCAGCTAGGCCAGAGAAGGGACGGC
Yes

Try the sequence AATACAGGGTCACAAGGCCAGAGTAGGTACGAAT
Yes

Try the sequence TCTTGTAGATCAAGCAGGTTAAGAACGCCTGAGT
No

Try the sequence TCTATTAGTCGAAGGGCAACCGACGAGTCCGTTT
No

Try the sequence TCAGACAGGTGAAGGCAACTCAGGTACGCAGTCG
No

Try the sequence CAAACTAAGTCACCGGAAGGTCAAAGTCCGCATG
Yes

Try the sequence GGAACGAGGGCATTCTAGTTGATAGCATGGCGAT
No

Try the sequence ACTAGTTGGTCAGCTGAGATCACACACAATTCGG
Yes

* * *

Tested on: PPARa:RXRa (NR concentration 270 nM, RXRa partner concentration 90 nM)
Assay: PBM binding z-score (relative to random genomic background probes); higher = stronger binding; sequences stand for … in GC…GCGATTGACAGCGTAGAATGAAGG
Would you kindly list PBM binding z-score for each of these sequences?
Output spec: single numeric token, no unit.

Recorded PBM binding z-score of CCCATTAGTTGACCATAAGGGCAACCGAAGCTCG , please.
0.65

Try the sequence TCTTGTAGATCTACAGGAGGTTAAGAAAGATCGA
1.13

Try the sequence TCTAGTAGATCAACAGGAGGTTAAGAAAGATCGA
1.36

Try the sequence TTACCAAGGTGAAGGTCGTAGATCCCTCTGTAGA
2.43

Try the sequence CCGACTGAGGCAAGGTTACCATAACGCACAGCCA
0.985

Try the sequence TGAATGAGGTTAAAGATCAGGGCACGTGGCGTCG
4.53

Try the sequence CCTGCTAGGTCGTGGTCAGCTAATCTACAGTATG
0.699

Try the sequence CCTCGGAGGACAACAGGAGATCAGAGCTGCCAGA
-0.626

Try the sequence TCATACAGGTAAAAGGTGAAAGTCGGTGTGGTAA
4.39

Try the sequence ACTAGCAGGCCAAGGGTCACTTAAGATTAGTCCG
4.28

Try the sequence CGAACTGGGTCAGAACAGGACAGTGAAGGATGAT
2.66

Try the sequence ATTCCAAGGTGATCGTGAGGTCGTTGATACTAAC
1.52

Try the sequence ACTAGGAGGCCAAGGGTCACTCAAGATTAGTCCG
4.59

Try the sequence GCTATTAGTTGTAAGGGCAACCGAATGATTCTCG
0.472

Try the sequence TTACCAAGGTGAGCTGAGGTCGTGGATCCAACTC
2.1

Try the sequence TCATTTAGGTAAATGCTAGGTGAAAGTCCGATCT
1.41

Try the sequence ATCGCTAGGTAAAAGTTCAGTGAATCCCGAGGAT
2.84

Try the sequence TCATATAGGTAAATGTGAAAGTCGAACGATATGA
0.983

Try the sequence CCTACTGGGCCATCGGGTCATTGATATCAACGTT
3.29

Try the sequence CCTACTGGGCCATTCAGAGGTGATTGATCATATG
0.81

Try the sequence AGAATGAGGTTATACGTAGATCAGGGGAGAAAGT
3.05

Try the sequence TCATATAGGTAAACAGGTTAAAGTCCGTAAGTTA
2.69

Try the sequence ATATGTAGGTTACATCCCGGTCATTCAGGCTATG
3.66

Try the sequence CGAACTAGGTGAGAACAGGACAGTGAAGGATGAT
1.57

Try the sequence TCCGACAGGTGAAGGTAACTCAGGTACGCAGTCG
0.847

Try the sequence ATCTCTAGGTAACCAAGGTCAGTGAATGCCGAAC
2.72

* * *

Tested on: RARa:RXR (NR concentration 270 nM, RXRa partner concentration 90 nM)
Experiment: PBM binding z-score (relative to random genomic background probes); higher = stronger binding; sequences stand for … in GC…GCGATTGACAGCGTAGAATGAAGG
Respond with Yes for PBM binding z-score values of 3 and above, No for values below.

Check the entry ATATGTAGGTTAGCCGGGGTCATTCAGACTAGGC : does PBM binding z-score equal or exceed 3?
Yes

Try the sequence TTACCAAGGTGAAGGTCGGTGATCCCTCTGTAGA
No

Try the sequence ACTCGGAAGACAAAGGTCAGAGCTACGCCAGTGA
Yes

Try the sequence GCTCGGAGGACAAGGTCAGAGATTTGTCCGTAGA
No

Try the sequence AGAACGAGGGCACGCTGAGTTGATGGCAGAGTAG
No

Try the sequence GGAACGAGGGCATTCGAGTTGATAGCGTGGCGAT
No

Try the sequence TAGCCTAGGTCCGATCGGGCCAGTATACGCTATA
No

Try the sequence ACTAGCAGGCCAAGGGTCACTCTAGATTAGTCCG
Yes

Try the sequence AGTAAAAGTTCAGGACGAGGTAACGTAAAGCACG
No

Try the sequence ACTATTAGTTGACTTAGGGCATCCGATACGACGC
No

Try the sequence CGAACGAGGGCATGAGTTGATCGCAAATGCCGAT
No

Try the sequence TCTAGCAGGCCCGAGGGTCACTCAAGAGGTACGG
No

Try the sequence CCTAGTGGGCCATCAGGTCATTGATATCAACGTT
No

Try the sequence GCTATTAGTTGAAAGGGCAATCGAATGATTCTCG
No

Try the sequence CGTCCAACGTCAGAGAGGTCAGTGAATGCCGAGT
No

Try the sequence ATCGAAAGGTCGACGAGGTGAGTGTACACCGTTT
Yes

Try the sequence ATCGAAAGGTCGTGAGGTGAGTAGACAGAAAGGC
Yes

Try the sequence TCTTGGAGATCAAGCAGGTTAAGAAAGCCTGAGT
No

Try the sequence GCTAGCAGGCCATTTGGGACACTCAATGACGGGC
No

Try the sequence CGTCCAAGGTCAAGGGTCAGTGAAGAGATGACGG
Yes

Try the sequence CCTCCTGGGCCAAAAAGGTCATTGATGCCGATAA
Yes

Try the sequence TCATATAGGTAAATGCTAGGTAAAAGTCCGATCT
No

Try the sequence CCTTACGGGGCAAGGTTATAGCACGGGTGGTACG
No

Try the sequence TCTCGGAGGACACGGAAGGTCAGAGCTCGACATC
No

Try the sequence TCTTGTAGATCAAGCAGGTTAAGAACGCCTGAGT
No

Try the sequence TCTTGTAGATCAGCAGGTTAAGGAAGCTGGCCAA
No

Try the sequence CCGACTGGGCCACGAAAGGTCATTGATTCAGTGA
Yes

Try the sequence TGAATGACGTTATAAGATCAGGGAACGTTGCAAA
No

Try the sequence CCTTACGGGTCACGAGGTTATGGCACGACGAGCG
Yes

Try the sequence ACTATTAGTTGACTTAGGGAAACCGATACGACGC
No

Try the sequence ATCTCTAGGTACAGTTCAGTGAAAGATCGATAGA
No

Try the sequence TGTCAAAGTTCAAAGGAAACGTAAGTATCCACAC
Yes

Try the sequence ATCTCTAGGTAAAAGTTCAGTCAATCCCGAGGAT
No

Try the sequence ATTTCTAGGTAAAGTTCAGTGAAAGATCGATAGA
No

Try the sequence TGAATGAGGTTAAAGATCCGGGAACGTGGCGTCG
No

Try the sequence TTACCAAGGTGAGCTGAGGTCGTTGAACCAACTC
No

Try the sequence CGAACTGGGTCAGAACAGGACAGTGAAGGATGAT
No

Try the sequence CCCTACGGGTCACTGACAGGTTATAGCATTTGGA
Yes

Try the sequence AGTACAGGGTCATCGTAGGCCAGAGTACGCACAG
Yes

Try the sequence GCGACTGGGGCATCAGCAGGTTACCATTACTTAA
No

Try the sequence TCTAGTTGGTCAAAAGTCACACACTCGAAATGCG
No

Try the sequence CCGCCTGGGGCAAGGTTACCATAACGCACAGCCA
No

Try the sequence CCTGCAAGGTCAATGGTCAGCTAAAGCAGCTCGC
Yes

Try the sequence AGTCAAAGTTCATCTAGCTAACGTAAGATATGCT
Yes

Try the sequence GCTCCTAGGTCAACTGATGGTCAGCTAAAGCTCG
Yes

Try the sequence TCTATTAGTAGATTAGGGCAACCGAAACAGCGGA
No

Try the sequence TAGCCTAGGTCATGGGCCAGTAGACCACGCGAAC
No

Try the sequence GGTACGAGGGCAAGTTGATAGCAGAGTTTGATGG
No

Try the sequence TCTATTAGATGAAGGGCAACCGACGAGTCCGTTT
No

Try the sequence CCGACTGAGGCAAAGGTTACCATACTCAGTACGA
No

Try the sequence CCTACTGGGCCAAGGCCATTGATCAGTCAAAGCA
No
